# assay procedure: clinical
# experimental setup: human, in vivo, 150 mg
measured property: Tmax (min)
Give bare numbers, in min.

Give Tmax for CC(C)(C)[C@H](NC(=O)C(F)(F)F)C(=O)N1C[C@H]2[C@@H]([C@H]1C(=O)N[C@H](C#N)C[C@@H]1CCNC1=O)C2(C)C [Nirmatrelvir]
38

* * *

# assay procedure: clinical
# experimental setup: human, in vivo, 500 mg
measured property: Tmax (h)
Give bare numbers, in h.

Give Tmax for CC(C)(C)[C@H](NC(=O)C(F)(F)F)C(=O)N1C[C@H]2[C@@H]([C@H]1C(=O)N[C@H](C#N)C[C@@H]1CCNC1=O)C2(C)C [Nirmatrelvir]
1
